test_target: PEPT1 (Homo sapiens)
Construct: The complete open reading frame was cloned into a Xenopus oocyte expression plasmid; expressed in transfected cells; host or cells: Xenopus oocytes injected with cRNA
Sequence (P46059 whole entry): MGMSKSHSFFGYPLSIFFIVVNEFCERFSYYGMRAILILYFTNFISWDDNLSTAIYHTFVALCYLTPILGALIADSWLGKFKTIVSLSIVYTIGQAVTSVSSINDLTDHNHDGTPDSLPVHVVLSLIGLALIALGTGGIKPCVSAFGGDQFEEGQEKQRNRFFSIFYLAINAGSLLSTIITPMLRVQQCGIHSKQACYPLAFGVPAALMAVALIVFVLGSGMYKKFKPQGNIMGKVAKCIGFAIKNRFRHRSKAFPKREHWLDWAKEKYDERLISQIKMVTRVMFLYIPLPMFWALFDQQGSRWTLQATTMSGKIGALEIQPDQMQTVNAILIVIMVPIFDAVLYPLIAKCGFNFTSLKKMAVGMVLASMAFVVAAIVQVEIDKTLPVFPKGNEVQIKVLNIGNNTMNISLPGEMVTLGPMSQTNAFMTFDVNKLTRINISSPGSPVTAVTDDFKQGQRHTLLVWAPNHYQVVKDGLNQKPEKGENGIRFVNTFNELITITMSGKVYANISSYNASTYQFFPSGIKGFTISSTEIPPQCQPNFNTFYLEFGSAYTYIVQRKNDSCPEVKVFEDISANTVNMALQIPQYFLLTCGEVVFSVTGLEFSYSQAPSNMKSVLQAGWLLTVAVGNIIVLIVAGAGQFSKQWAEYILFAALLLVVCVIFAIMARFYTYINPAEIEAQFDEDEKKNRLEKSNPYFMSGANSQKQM
assay_remarks: Transport currents (Vmax vs Gly-Sar) in Xenopus oocytes transfected with PEPT1, two-electrode voltage-clamp
Format: cell-based
measurement_conditions: oocytes transfected with PEPT1; in the presence of inhibitor XP10973
Non-standard residues stand in square brackets, D forms with d. Residues, ends and D or L forms follow the SMILES beside them. Sar = CNCC(=O)O
What PEPT1 (% Gly-Sar) +XP10973 (Vmax) was measured for each of the following?
Numeric answer only, unit % Gly-Sar assumed.

Lookup result for CC1(C)S[C@@H]2[C@H](NC(=O)[C@H](N)c3ccc(O)cc3)C(=O)N2[C@H]1C(=O)O ; measured PEPT1 (% Gly-Sar) +XP10973 (Vmax): 1.1

Lookup result for CN(CC(=O)O)C(=O)CN [Gly-Sar] (H-Gly-[Sar]-OH) ; measured PEPT1 (% Gly-Sar) +XP10973 (Vmax): 16

Lookup result for CC1=C(C(=O)O)N2C(=O)[C@@H](NC(=O)[C@H](N)c3ccc(O)cc3)[C@H]2SC1 ; measured PEPT1 (% Gly-Sar) +XP10973 (Vmax): 2.1

Lookup result for CC1=C(C(=O)O)N2C(=O)[C@@H](NC(=O)[C@H](N)C3=CCC=CC3)[C@H]2SC1 ; measured PEPT1 (% Gly-Sar) +XP10973 (Vmax): 1.9

Lookup result for N[C@@H](C(=O)N[C@@H]1C(=O)N2C(C(=O)O)=C(Cl)CS[C@H]12)c1ccccc1 ; measured PEPT1 (% Gly-Sar) +XP10973 (Vmax): 1.6
